Tested on: Yellow nutsedge
Experiment notes: Post-emergence herbicide test
Type: in vivo
Recorded conditions: Cyperus, 11.21 kg/ha, read-out: % plant inhibition (Yens)

>  <Smiles>
Cn1nc(-c2cc(CC(N)=O)c(Cl)cc2F)c(Cl)c1C(F)(F)F

>  <inhibition at 11210 g/ha, %>
40

$$$$
>  <Smiles>
Cn1nc(-c2cc([N+](=O)[O-])c(Cl)cc2Cl)c(Cl)c1C(F)(F)F

>  <inhibition at 11210 g/ha, %>
10

$$$$
>  <Smiles>
Cn1nc(-c2cc(NC(=O)C(F)(F)F)c(Cl)cc2Cl)c(Cl)c1C(F)(F)F

>  <inhibition at 11210 g/ha, %>
0

$$$$
>  <Smiles>
Cn1nc(-c2cc(CC(=O)NCCCl)c(Cl)cc2F)c(Cl)c1C(F)(F)F

>  <inhibition at 11210 g/ha, %>
0

$$$$

---

Test system: Annual bluegrass
Experiment notes: Post-emergence herbicide test
Format: in vivo
Recorded conditions: 1.12 kg/ha, read-out: % plant inhibition (Anbg)
Binary classification by inhibition at 1120 g/ha, with 40% as an inclusive lower bound for t; all other cases are f.

>  <Compound>
CCOC(=O)c1cc(-c2nn(C)c(C(F)(F)F)c2Cl)c(F)cc1Cl [Compound 148]

>  <Tested system>
Annual bluegrass

>  <Assigned category>
t

$$$$
>  <Compound>
CCC(C)OC(=O)c1cc(-c2nn(C)c(C(F)(F)F)c2Cl)c(F)cc1Cl (stereo not drawn) [Compound 136]

>  <Tested system>
Annual bluegrass

>  <Assigned category>
t

$$$$
>  <Compound>
CC(C#N)c1cc(-c2nn(C)c(C(F)(F)F)c2Cl)c(F)cc1Cl (stereo not drawn) [Compound 106]

>  <Tested system>
Annual bluegrass

>  <Assigned category>
f

$$$$
>  <Compound>
COCCOc1cc(-c2nn(C)c(C(F)(F)F)c2Cl)c(F)cc1Cl [Compound 270]

>  <Tested system>
Annual bluegrass

>  <Assigned category>
t

$$$$
>  <Compound>
CC(C)OC(=O)COc1cc(-c2nn(C)c(C(F)(F)F)c2Cl)c(F)cc1Cl [Compound 282]

>  <Tested system>
Annual bluegrass

>  <Assigned category>
f

$$$$
>  <Compound>
COC(=O)C(C)OC(=O)c1cc(-c2nn(C)c(C(F)(F)F)c2Cl)c(F)cc1Cl (stereo not drawn) [Compound 137]

>  <Tested system>
Annual bluegrass

>  <Assigned category>
t

$$$$
>  <Compound>
C#CCN1C(=O)COc2cc(F)c(-c3nn(C)c(C(F)(F)F)c3Cl)cc21 [Compound 446]

>  <Tested system>
Annual bluegrass

>  <Assigned category>
t

$$$$
>  <Compound>
C#CCOc1cc(-c2nn(C)c(C(F)(F)F)c2Cl)c(F)cc1Br [Compound 96]

>  <Tested system>
Annual bluegrass

>  <Assigned category>
t

$$$$
>  <Compound>
CCOC(=O)C(C)=Cc1cc(-c2nn(C)c(C(F)(F)F)c2Cl)c(F)cc1Cl [Compound 127]

>  <Tested system>
Annual bluegrass

>  <Assigned category>
f

$$$$
>  <Compound>
Cn1nc(-c2cc(OCC(=O)O)c(Cl)cc2F)c(Cl)c1C(F)(F)F [Compound 291]

>  <Tested system>
Annual bluegrass

>  <Assigned category>
f

$$$$
>  <Compound>
Cn1nc(-c2cc(NS(C)(=O)=O)c(Cl)cc2Cl)c(Cl)c1C(F)(F)F [Compound 91]

>  <Tested system>
Annual bluegrass

>  <Assigned category>
t

$$$$
>  <Compound>
Cn1nc(-c2cc(O)c(Cl)cc2F)c(Cl)c1C(F)(F)Cl [Compound 329]

>  <Tested system>
Annual bluegrass

>  <Assigned category>
t

$$$$
>  <Compound>
CCOCc1cc(-c2nn(C)c(C(F)(F)F)c2Cl)c(F)cc1Cl [Compound 118]

>  <Tested system>
Annual bluegrass

>  <Assigned category>
f

$$$$
>  <Compound>
CC(C)OC(=O)COc1cc(-c2nn(C)c(C(F)(F)Cl)c2Cl)c(F)cc1Cl [Compound 285]

>  <Tested system>
Annual bluegrass

>  <Assigned category>
f

$$$$
